Reference source: patent US10208019B2

Each record here notes measured pEC50.
- SUBJECT_OF_TEST: human GLP-1R (Homo sapiens (Human), UniProt P43220, L260F)
- Sequence (P43220 24-463 L260F): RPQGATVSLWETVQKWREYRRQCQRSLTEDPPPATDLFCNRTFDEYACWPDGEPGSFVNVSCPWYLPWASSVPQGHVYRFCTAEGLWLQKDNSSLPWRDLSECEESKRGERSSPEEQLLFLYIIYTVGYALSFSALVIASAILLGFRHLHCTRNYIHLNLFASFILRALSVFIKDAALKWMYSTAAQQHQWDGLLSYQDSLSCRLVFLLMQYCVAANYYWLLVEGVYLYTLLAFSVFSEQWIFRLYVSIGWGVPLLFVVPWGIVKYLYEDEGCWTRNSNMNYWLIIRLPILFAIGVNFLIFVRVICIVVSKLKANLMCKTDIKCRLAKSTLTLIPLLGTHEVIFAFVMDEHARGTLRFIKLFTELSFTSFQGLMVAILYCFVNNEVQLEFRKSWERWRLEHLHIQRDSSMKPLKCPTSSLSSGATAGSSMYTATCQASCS
- ASSAY_OVERVIEW: CHO GLP-1R Clone C6—Assay 2: HTRF cAMP cell-based functional agonist assay (low GLP-1R density)
- CONDITION_SUMMARY: CHO GLP-1R Clone C6, cAMP HTRF; geometric mean
pEC50: −log10 of the molar value.

MOLECULE	pEC50
COCCn1c(CN2CCC(c3cccc(OCc4cc(F)c(Cl)cc4F)n3)CC2)nc2ccc(C(=O)O)cc21	6.46
COCCn1c(CN2CCN(c3cccc(OCc4ccc(Cl)cc4F)n3)[C@H](C)C2)nc2ccc(C(=O)O)cc21	5.80
C[C@H]1CN(c2cccc(OCc3ccc(C#N)cc3F)n2)CCN1Cc1nc2ccc(C(=O)O)cc2n1CC1CCCO1 (single isomer, unassigned; diastereomer 1) [Example 14A-11]	6.85
C[C@H]1CN(c2cccc(OCc3ccc(C#N)cc3F)n2)CCN1Cc1nc2ccc(C(=O)O)cc2n1C[C@H]1CCOC1 [Example 10A-59]	7.08
C[C@H]1CN(c2cccc(OCc3ccc(C#N)cc3F)n2)CCN1Cc1nc2ccc(C(=O)O)cc2n1Cc1cncn1C [Example 10A-25]	7.39
N#Cc1ccc(COc2cccc(C3CCN(Cc4nc5ccc(C(=O)O)cc5n4CC4CCCO4)CC3)n2)cc1 (single isomer, unassigned; enantiomer 2) [Example 14A-02]	5.82
Cn1cncc1Cn1c(CN2CCC(c3cccc(OCc4ccc(F)cc4F)n3)CC2)nc2ccc(C(=O)O)cc21	7.35
O=C(O)c1ccc2nc(CN3CCC(c4cccc(OCc5ccc(Cl)cc5F)n4)CC3)n(CCn3cccn3)c2c1 [Example 11A-28]	5.92
C[C@H]1CN(c2cccc(OCc3ccc(C#N)cc3F)n2)CCN1Cc1nc2ccc(C(=O)O)cc2n1Cc1cnco1 [Example 10A-17]	7.23
COCCn1c(CN2CCN(c3cccc(OCc4ccc(Cl)cc4F)n3)CC2C(F)(F)F)nc2ccc(C(=O)O)cc21 (single isomer, unassigned; enantiomer 2) [Example 12A-02]	5.80
COCCn1c(CN2CCN(c3cccc(OCc4ccc(Cl)cc4F)n3)C[C@@H]2C)nc2ccc(C(=O)O)cc21 [Example 12A-10]	6.77
O=C(O)c1ccc2nc(CN3CCC(c4cccc(OCc5ccc(Cl)cc5F)n4)CC3)n(Cc3cnco3)c2c1 [Example 10A-01]	7.37
COCCn1c(CN2CCC(c3cccc(OCc4ccc(Cl)cc4F)n3)CC2)nc2cnc(C(=O)O)cc21	5.80
